# Target System: human KDR protein in HEK-293 cells (Homo sapiens (Human), UniProt P35968)
# Sequence (P35968 20-1356): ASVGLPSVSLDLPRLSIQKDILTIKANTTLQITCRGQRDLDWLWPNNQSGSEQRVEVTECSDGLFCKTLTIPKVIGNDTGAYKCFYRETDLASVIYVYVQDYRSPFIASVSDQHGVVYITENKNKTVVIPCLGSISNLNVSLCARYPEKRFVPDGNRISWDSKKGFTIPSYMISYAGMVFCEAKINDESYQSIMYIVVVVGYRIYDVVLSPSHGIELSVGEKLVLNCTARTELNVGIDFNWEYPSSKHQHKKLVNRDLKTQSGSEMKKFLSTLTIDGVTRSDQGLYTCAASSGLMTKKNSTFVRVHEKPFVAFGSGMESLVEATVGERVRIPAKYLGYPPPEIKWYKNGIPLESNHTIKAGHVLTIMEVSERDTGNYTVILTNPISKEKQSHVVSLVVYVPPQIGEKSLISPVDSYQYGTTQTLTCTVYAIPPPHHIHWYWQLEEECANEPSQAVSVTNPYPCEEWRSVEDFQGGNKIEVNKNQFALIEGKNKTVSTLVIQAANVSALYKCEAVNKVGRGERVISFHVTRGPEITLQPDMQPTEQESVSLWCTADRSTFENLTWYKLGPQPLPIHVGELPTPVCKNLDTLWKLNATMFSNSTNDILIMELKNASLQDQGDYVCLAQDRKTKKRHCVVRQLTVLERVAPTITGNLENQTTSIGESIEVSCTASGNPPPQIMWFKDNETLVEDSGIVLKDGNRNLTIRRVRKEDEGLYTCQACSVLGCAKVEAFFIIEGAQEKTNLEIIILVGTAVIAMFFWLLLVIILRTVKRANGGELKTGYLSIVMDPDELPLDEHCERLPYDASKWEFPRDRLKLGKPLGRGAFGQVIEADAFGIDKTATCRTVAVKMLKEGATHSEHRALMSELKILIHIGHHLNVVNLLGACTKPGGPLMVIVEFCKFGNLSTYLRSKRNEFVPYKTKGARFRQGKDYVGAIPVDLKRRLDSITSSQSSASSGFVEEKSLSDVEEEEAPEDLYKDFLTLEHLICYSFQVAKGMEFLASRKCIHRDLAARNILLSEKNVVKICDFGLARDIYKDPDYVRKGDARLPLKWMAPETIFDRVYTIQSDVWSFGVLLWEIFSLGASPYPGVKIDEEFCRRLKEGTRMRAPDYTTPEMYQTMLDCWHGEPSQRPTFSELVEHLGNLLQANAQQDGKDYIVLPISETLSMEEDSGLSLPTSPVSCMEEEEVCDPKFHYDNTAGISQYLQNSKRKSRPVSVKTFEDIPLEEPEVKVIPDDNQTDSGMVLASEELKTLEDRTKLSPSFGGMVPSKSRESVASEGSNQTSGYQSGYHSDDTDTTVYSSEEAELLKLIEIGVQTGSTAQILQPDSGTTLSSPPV
# Experiment: KDR Cell Assay (phospho-KDR in HEK-293 cells expressing inducible KDR)
# Type: cell-based
# Condition Context: pKDR Cell HEK 10% FBS IC50, HEK-293 cells expressing inducible KDR, VEGF stimulated
Counter-ions that a name gives are not always drawn.
Measurement Type: IC50 (µM)

CN(C)c1ccc(CN2CCN(c3ccc(-c4cc(-c5cnn(C)c5)cn5ncc(C#N)c45)cn3)CC2)cc1 [Example 461] : 0.129
CCn1cc(-c2cc(-c3ccc(N4CCN(Cc5ccccc5)CC4)nc3)c3c(C#N)cnn3c2)c(C)n1 [Example 609] : 1.98
CCCCN(C(=O)N1CCN(c2ccc(-c3cc(-c4cnn(C)c4)cn4ncc(C#N)c34)cn2)CC1)c1ccccc1 [Example 377] : 2.03
COc1ccc(CN2CCN(c3ccc(-c4cc(-c5cnn(C)c5)cn5ncc(C#N)c45)cn3)CC2)cc1 [Example 432] : 0.263
COc1ncccc1CN1CCN(c2ccc(-c3cc(-c4cnn(C)c4)cn4ncc(C#N)c34)cn2)CC1 [Example 452] : 0.844
Cc1cccc(CN2CCN(c3ccc(-c4cc(-c5cnn(C)c5)cn5ncc(C#N)c45)cn3)CC2)n1 [Example 433] : 1.08
Cn1cc(-c2cc(-c3ccc(N4CCC(Nc5ccccc5)CC4)nc3)c3c(C#N)cnn3c2)cn1 [Example 507] : 0.0249
Cn1cc(-c2cc(-c3ccc(N4C5CC4CN(Cc4ccccc4)C5)nc3)c3c(C#N)cnn3c2)cn1 [Example 490] : 0.619
Cn1cc(-c2cc(-c3ccc(N4CCN(Cc5ncccn5)CC4)nc3)c3c(C#N)cnn3c2)cn1 [Example 472] : 1.77
Cn1cc(-c2cc(-c3ccc(N4CCCC5(CCNCC5)C4)nc3)c3c(C#N)cnn3c2)cn1 [Example 540, dihydrochloride] : 1.22
Cn1cc(-c2cc(-c3ccc(N4CCCC5(CCCN5)C4)nc3)c3c(C#N)cnn3c2)cn1 (stereo not drawn) [Example 542, dihydrochloride] : 0.222
Cn1cc(-c2cc(-c3ccc(N4CCN(Cc5ccccn5)CC4)nc3)c3c(C#N)cnn3c2)cn1 [Example 473] : 0.968
CN(C)CC(=O)N1CC2(CCN(c3ccc(-c4cc(-c5cnn(C)c5)cn5ncc(C#N)c45)cn3)CC2)C1 [Example 494] : 1.83
Cn1cc(-c2cc(-c3cnc(N4CCN(Cc5ccccc5)CC4)nc3)c3c(C#N)cnn3c2)cn1 [Example 639] : 4.68
